- TGT: T1, hAMY3R (human, UniProt P30988)
- T1 sequence 1: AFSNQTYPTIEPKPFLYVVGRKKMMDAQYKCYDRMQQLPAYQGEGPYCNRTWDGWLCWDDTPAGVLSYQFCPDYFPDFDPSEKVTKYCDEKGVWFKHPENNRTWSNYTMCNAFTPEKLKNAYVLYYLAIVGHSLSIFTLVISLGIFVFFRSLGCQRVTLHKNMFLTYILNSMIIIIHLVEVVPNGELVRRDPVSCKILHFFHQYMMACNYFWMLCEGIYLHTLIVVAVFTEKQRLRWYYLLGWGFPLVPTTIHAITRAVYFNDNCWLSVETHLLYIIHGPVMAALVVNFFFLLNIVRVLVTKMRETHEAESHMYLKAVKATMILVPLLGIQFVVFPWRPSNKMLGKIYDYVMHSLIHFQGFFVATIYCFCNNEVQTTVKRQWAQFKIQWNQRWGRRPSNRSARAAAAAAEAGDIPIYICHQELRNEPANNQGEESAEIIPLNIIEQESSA
- T1 sequence 2: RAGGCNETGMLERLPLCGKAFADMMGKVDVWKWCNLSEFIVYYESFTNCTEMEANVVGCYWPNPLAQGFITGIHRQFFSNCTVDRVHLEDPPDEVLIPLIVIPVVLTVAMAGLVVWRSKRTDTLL
- ASSAY_SUMMARY: cell-based or functional assay
Numbered stars: 1 amine (or outer) side, 2 acyl side, 3 side chain; on linkers, the order of the positions; unused ones are H or OH. Bridge positions count the residues as written; N and C are the ends. Square brackets hold non-standard residues; d marks the D form. Ends that are not written are not given here. * marks the point of attachment. C20 diacid = O=C(O)CCCCCCCCCCCCCCCCCCC(=O)*; γGlu = O=C(O)[C@H](CCC(=O)[*:2])N[*:1]; Hyp = O=C(O)[C@@H]1C[C@@H](O)CN1; Cit = NC(=O)NCCC[C@H](N)C(=O)O
Below: a set of entries, each annotated with reported hAMY3R EC50 (cAMP).
Return type: number; implicit unit nM.

GCRTGTCTVQWLAHQIYQFTDKDKDNVAPRSNIGPNG[Hyp]-NH2 (disulfide 2-7 (inferred); ends not checked) [SEQ ID NO: 352]	0.04
KCNFATCTVQRLAHQIYQFTDKDKDNVAPPTEVGSNGP [SEQ ID NO: 18]	0.008
GCRFGTCTVQRLAHQIYQFTDKDKDNVAPRSNIGPQGY [SEQ ID NO: 382]	0.034
KCNTATCTVQRLAHQIYQFTDKAKDNVAPPTNVGSNG[Hyp]-NH2 (disulfide 2-7 (inferred); ends not checked) [SEQ ID NO: 43]	0.01

Sample GCRWGTCTVQRLAHQIYQFTDKFKDNVAPRSKISPQT[Hyp]-NH2 (disulfide 2-7 (inferred); ends not checked) [SEQ ID NO: 171] ; hAMY3R EC50 (cAMP) observed: 0.064

Looking up KCNFATCTVQRLAHQIYQFTDKDKDNVAPPTEVGSNG[Hyp]-NH2 (disulfide 2-7 (inferred); ends not checked) [SEQ ID NO: 10] , I see its hAMY3R EC50 (cAMP) listed as 0.007

Measured hAMY3R EC50 (cAMP) of {C20 diacid-γGlu}-KCNTATCTVARLAHQIAQFTDKDKDNVAPPTNVGSNG[Hyp]-NH2 (disulfide 2-7 (inferred); ends not checked) [SEQ ID NO: 107] : 0.019

GET /value?item= GCRTGTCTVQRLAHQIYQFTDKDKDNVAPRTNISPQGY [SEQ ID NO: 199] &field=hAMY3R EC50 (cAMP) returns 0.124

binder GCRTGTCTVQRLAHQIYQFTDKDKDNVAPRSNVGPQGY [SEQ ID NO: 138] , hAMY3R EC50 (cAMP) observed: 0.035

Measured hAMY3R EC50 (cAMP) of KCNTATCTVQ[Cit]LAHQIYQFTDKDKDNVAAPTNVGSNG[Hyp]-NH2 (disulfide 2-7 (inferred); ends not checked) [SEQ ID NO: 262] : 0.014
